Assay: Membrane permeability by PAMPA assay
Measured attribute: Papp (×10⁻⁶ cm/s)

>>> test_value("CN(C)CCNS(=O)(=O)c1ccc(Nc2nccc(-c3ccsc3)n2)cc1")
2.4
>>> test_value("NS(=O)(=O)c1ccc(Nc2ncc3c(n2)-c2ccsc2CC3)cc1")
0.38

(P) NS(=O)(=O)c1ccc(Nc2ncc3c(n2)-c2ccc(NC(=O)Cc4ccccc4)cc2CC3)cc1
(Q) NS(=O)(=O)c1ccc(Nc2ncc3c(n2)-c2ccc(NC(=O)Cc4cccs4)cc2CC3)cc1
(R) NS(=O)(=O)c1ccc(Nc2nccc(-c3ccccc3)n2)cc1
(S) CN(C)CCNS(=O)(=O)c1ccc(Nc2ncc3c(n2)-c2ccsc2CC3)cc1
**Query** Ascending by Papp, please: list the compounds accordingly. Order the labels as requested and list them.
**Result** Q, S, R, P
(Q: 0.51 ×10⁻⁶ cm/s, S: 1.54 ×10⁻⁶ cm/s, R: 2.26 ×10⁻⁶ cm/s, P: 3.37 ×10⁻⁶ cm/s)

(1) CC(C)(C)CC(=O)Nc1ccc(-c2ccnc(Nc3ccc(S(N)(=O)=O)cc3)n2)cc1
(2) NS(=O)(=O)c1ccc(Nc2nccc(-c3ccc(NC(=O)Cc4cccs4)cc3)n2)cc1
(3) CC(C)(C)CC(=O)Nc1ccc2c(c1)CCc1cnc(Nc3ccc(S(N)(=O)=O)cc3)nc1-2
**Query** Ascending by Papp, please: list the compounds accordingly. Order the labels as requested and list them.
**Result** 2, 1, 3
